molecular target: human IRAK4 FL (Full Length) (Homo sapiens (Human), UniProt Q9NWZ3); test: IRAK4 Enzymatic DELFIA Assay, Protocol A; type: biochemical; settings: human IRAK4 FL, 0.6 mM ATP (KM); read-out: IRAK4 DELFIA Protocol A IC50
Sequence (Q9NWZ3 whole entry): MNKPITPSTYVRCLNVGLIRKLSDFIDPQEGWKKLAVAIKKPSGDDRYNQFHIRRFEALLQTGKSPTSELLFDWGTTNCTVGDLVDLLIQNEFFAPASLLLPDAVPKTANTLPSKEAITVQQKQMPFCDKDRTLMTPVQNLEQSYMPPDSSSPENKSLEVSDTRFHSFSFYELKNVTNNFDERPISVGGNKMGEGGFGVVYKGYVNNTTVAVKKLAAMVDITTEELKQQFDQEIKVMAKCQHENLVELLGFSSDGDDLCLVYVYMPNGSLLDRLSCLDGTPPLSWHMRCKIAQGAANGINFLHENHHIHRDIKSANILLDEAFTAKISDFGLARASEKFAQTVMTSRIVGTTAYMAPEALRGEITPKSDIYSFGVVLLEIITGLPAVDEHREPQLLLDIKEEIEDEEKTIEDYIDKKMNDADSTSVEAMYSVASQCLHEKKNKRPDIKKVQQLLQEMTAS
The label label 1 is reserved for IC50 strictly under 0.8 nM; label 0 covers values equal to or above it.

{"columns": ["COMPOUND", "ANSWER LABEL"],
 "data": [
  ["COc1cc2c(OC[C@H]3NC(=O)[C@@H](F)[C@H]3CF)nccc2cc1C(N)=O [Example 367]", "label 1"],
  ["CC(C)Oc1cc2c(OCC3CN(C(=O)CC#N)C3)nccc2cc1C(N)=O [Example 69]", "label 0"],
  ["CC(C)Oc1cc2c(O[C@@H](C)[C@@H]3CCC(=O)N3)nccc2cc1C(N)=O [Example 157]", "label 0"],
  ["CC[C@H]1[C@@H](COc2nccc3cc(C(N)=O)c(OC(C)C)cc23)NC(=O)C1(F)F [Example 201]", "label 1"],
  ["COc1cc2c(OC[C@H]3NC(=O)[C@@H]4[C@@H](F)[C@@H]43)nccc2cc1C(N)=O [Example 315]", "label 0"],
  ["COc1cc2c(OC[C@H]3NC(=O)O[C@@H]3C)nccc2cc1C(N)=O [Example 227]", "label 0"],
  ["CC(C)Oc1cc2c(OC[C@@H]3CCC(=O)N3)cccc2cc1C(N)=O [Example 114]", "label 1"]
]}
